Listed here are compounds together with their documented inhibition at 10 µM.
# TARGET_OR_TEST_SYSTEM: Recombinant human HSD17B13 enzyme (Homo sapiens)
# Sequence (Q7Z5P4 20-300): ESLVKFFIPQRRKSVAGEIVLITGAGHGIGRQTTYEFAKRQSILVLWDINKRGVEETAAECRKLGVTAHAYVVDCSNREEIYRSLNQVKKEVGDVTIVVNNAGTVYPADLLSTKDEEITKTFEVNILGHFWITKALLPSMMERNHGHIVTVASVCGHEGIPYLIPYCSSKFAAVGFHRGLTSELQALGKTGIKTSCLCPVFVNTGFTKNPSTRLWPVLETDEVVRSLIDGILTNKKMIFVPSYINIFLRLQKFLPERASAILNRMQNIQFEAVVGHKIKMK
# PROTOCOL_DESCRIPTION: HSD17b13 NAD(P)H-Glo biochemical assay
# PARTICULARS: at 10 uM compound; read-out: HSD17β13 % inhibition at 10 uM
Report as a plain number; the unit % is understood.

Worked cases, inhibition at 10 µM given:
- SMILES_STRUCTURE: "CS(=O)(=O)N1CCN(c2ccc3c(-c4cc(O)cc(C(F)(F)F)c4F)n[nH]c3c2)CC1"
  TARGET_OR_TEST_SYSTEM: "Recombinant human HSD17B13 enzyme (Homo sapiens)"
  inhibition at 10 µM, %: 36
- SMILES_STRUCTURE: "CN(c1cc2c(nn1)c(-c1cc(C(F)(F)F)c(F)c(O)c1O)nn2C)C1CCOCC1"
  TARGET_OR_TEST_SYSTEM: "Recombinant human HSD17B13 enzyme (Homo sapiens)"
  inhibition at 10 µM, %: 20
- SMILES_STRUCTURE: "O=C(NC12CC(C1)C2)c1ccc2oc(-c3cc(C(F)(F)F)cc(O)n3)nc2c1"
  TARGET_OR_TEST_SYSTEM: "Recombinant human HSD17B13 enzyme (Homo sapiens)"
  inhibition at 10 µM, %: 50

Request: Short answer please: inhibition at 10 µM, Recombinant human HSD17B13 enzyme (Homo sapiens), entry `Cn1nc(-c2cc(C(F)(F)F)c(F)c(O)c2F)c2cnc(N3CCCC34COC4)cc21`
Result: 35

Request: Test system Recombinant human HSD17B13 enzyme (Homo sapiens); read-out inhibition at 10 µM; what value for `CS(=O)(=O)N1CCN(c2ccc3oc(-c4cc(C(F)(F)F)c(F)c(O)n4)nc3c2)CC1` ?
Result: 40

Request: Any idea what inhibition at 10 µM came out for `Cn1nc(-c2cc(C(F)(F)F)c(F)c(O)c2F)c2ccc(NC3COC3)nc21` on Recombinant human HSD17B13 enzyme (Homo sapiens)?
Result: 25

###

# TARGET_OR_TEST_SYSTEM: Recombinant human HSD17B13 enzyme (Homo sapiens, UniProt Q7Z5P4)
# PROTOCOL_DESCRIPTION: HSD17b13 NAD(P)H-Glo biochemical assay
# PARTICULARS: 50 uM estradiol, 1 mM NAD+, NAD(P)H-Glo luminescence; read-out: HSD17β13 IC50
pIC50: −log10 of the molar value.
Listed here: items and their measured pIC50.

- MOLECULE: "COCCn1nc(-c2cc(C(F)(F)F)c(F)c(O)c2F)c2cnc(N3CCOCC34CC4)cc21"
  pIC50: "> 7.00"

Request: Value wanted: pIC50 (Recombinant human HSD17B13 enzyme (Homo sapiens, UniProt Q7Z5P4)) of entry `CS(=O)(=O)N1CCN(c2ccc3c(-c4cc(O)c(F)c(C(F)(F)F)c4)n[nH]c3n2)CC1`
Result: 6.00 to 7.00

Request: Tell me reported pIC50 for `Cn1nc(-c2cc(C(F)(F)F)c(F)c(O)c2F)c2cnc(N3CCN(S(C)(=O)=O)C4(CC4)C3)nc21` , tested with Recombinant human HSD17B13 enzyme (Homo sapiens, UniProt Q7Z5P4).
Result: > 7.00
